Conditions: 298.15 K; 101.33 kPa; Liquid; Capillary tube (Ostwald / Ubbelohde) method
ATTRIBUTE MEASURED: kinematic viscosity (m2/s)
Respond with the bare value in m2/s.

Use the examples below as a reference point.
COC(=O)OC [dimethyl carbonate] :: 5.41e-07
CO [methanol] :: 6.6e-07
COC(=O)Oc1ccccc1 [methyl phenyl carbonate] :: 3.67e-06

Supply kinematic viscosity value. Item: COc1ccccc1 [anisole]
9.71e-07

* * *

Recorded refractive index for the following compounds
Test: refractive index (Na D-line) (dimensionless)
Details: 298.15 K; 101.33 kPa; Liquid; Standard Abbe refractometry
No unit in the answer, please; the number alone is enough.

Tell me its refractive index given COc1ccccc1 as the entry.
1.5143

Identify measured refractive index associated with COC(=O)OC [dimethyl carbonate]
1.3664

Answer with the recorded refractive index for the compound listed here: CO
1.3265

Indicate the recorded refractive index value for this compound: COC(=O)Oc1ccccc1 [methyl phenyl carbonate]
1.4942

* * *

Assay: refractive index (Na D-line) (dimensionless)
Settings: 313.15 K; 101.33 kPa; Liquid; Standard Abbe refractometry
± gives the expanded uncertainty stated by the source.
ATTRIBUTE MEASURED: refractive index

The cases that follow already have their refractive index on record.
COc1ccccc1 :: 1.5063 ± 0.0004
COC(=O)OC [dimethyl carbonate] :: 1.3595 ± 0.0004
COC(=O)Oc1ccccc1 [methyl phenyl carbonate] :: 1.4873 ± 0.0004

Alright, here's another compound for you.
# return recorded refractive index for input CO
1.3208 ± 0.0004

* * *

Experiment: refractive index (Na D-line) (dimensionless)
Details: 308.15 K; 101.33 kPa; Liquid; Standard Abbe refractometry
ATTRIBUTE MEASURED: refractive index
Reply with just the number.

Recorded results for 3 compounds are shown here.
COc1ccccc1 :: 1.5092
COC(=O)OC [dimethyl carbonate] :: 1.3618
CO :: 1.3227

Proceed to the following item.
Assign refractive index to the following record: COC(=O)Oc1ccccc1 [methyl phenyl carbonate]
1.4896

* * *

Details: 318.15 K; 101.33 kPa; Liquid; Capillary tube (Ostwald / Ubbelohde) method
ATTRIBUTE MEASURED: kinematic viscosity (m2/s)
Entry rule: numbers only, all in m2/s.

Study these solved cases before continuing.
COC(=O)OC [dimethyl carbonate] :: 4.33e-07
COc1ccccc1 [anisole] :: 7.4e-07

Quickly give me recorded kinematic viscosity for COC(=O)Oc1ccccc1 [methyl phenyl carbonate]
2.24e-06

# return recorded kinematic viscosity for entry CO [methanol]
5.19e-07

* * *

Conditions: 288.15 K; 101.33 kPa; Liquid; Vibrating tube method
Recorded mass density values for a group of compounds are listed next.
Numbers only here, please. The scale is kg/m3.

Please review the entries below; each comes with its answer.
COC(=O)Oc1ccccc1 [methyl phenyl carbonate] :: 1153.93
CO :: 796.5
COC(=O)OC [dimethyl carbonate] :: 1077.16

// next item, mass density requested
Supply reported mass density belonging to this compound: COc1ccccc1
996.56

* * *

Listing of recorded refractive index by entry.
Assay: refractive index (Na D-line) (dimensionless)
Conditions: 293.15 K; 101.33 kPa; Liquid; Standard Abbe refractometry
Enter the number alone.

COc1ccccc1 :: 1.5169
CO :: 1.3285
COC(=O)OC [dimethyl carbonate] :: 1.3688

// moving on: another record for refractive index
For the compound COC(=O)Oc1ccccc1 [methyl phenyl carbonate] , report refractive index.
1.4965
